system: MCF7; assay: Antiproliferative activity against human MCF7 cell line by MTT assay; format: functional, cell-based
The label is Yes for IC50 below 100 µM and No for IC50 equal to or exceeding 100 µM.

- compound: "O=P([O-])(O)C(O)(C[n+]1ccc(-c2ccccc2)cc1)P(=O)(O)O (stereo not given)"
  assigned-class: "No"

Is the reported IC50 for O=P([O-])(O)C(O)(C[n+]1ccc2ccccc2c1)P(=O)(O)O (stereo not given) strictly below 100 µM?
No

Find out if reported IC50 for O=P([O-])(O)C(O)(C[n+]1cccc(Br)c1)P(=O)(O)O (stereo not given) is less than 100 µM
Yes

Given the entry O=P(O)(O)C(O)(Cc1cccnc1)P(=O)(O)O [RISEDRONIC ACID] , would its reported IC50 be below 100 µM?
Yes

For this compound, is IC50 lower than 100 µM? O=P(O)(O)C(O)(CCc1cccc(-c2ccc(-c3ccccc3)cc2)c1)P(=O)(O)O
No

Field: below-cutoff. Rule: recorded IC50 strictly less than 100 µM. Subject: O=P([O-])(O)C(O)(C[n+]1cccc(-c2ccc(O)cc2)c1)P(=O)(O)O (stereo not given)
Yes

Hi there! Is IC50 for O=P([O-])(O)C(O)(C[n+]1ccc(Cc2ccccc2)cc1)P(=O)(O)O (stereo not given) below 100 µM, do you know?
No
